# EXPERIMENT: Toxicity in brine shrimp
# Type: organism-based
# MEASUREMENT CONDITIONS: artemia, in vivo; read-out: LD50 (the source's name)

{"columns": ["STRUCTURE SMILES STRING", "LC50, µg/mL"],
 "data": [
  ["CCCCCC/C=C\\CCC[C@@H](O)[C@H](N)CO", 9]
]}
